Reported viability, T/C by item:
Test system: 521955-158-R2-J5-PDC complex spheroid viability
experiment-summary: Anticancer human tumor 521955-158-R2-J5-PDC patient-derived pancreatic carcinoma cell line growth inhibition
test-context: second compound 10 µM; first compound 0.316 µM; active compounds read low
From the text: Multicellular complex tumor spheroid response to LSD1 Inhibitor Iadademstat in combination with a variety of drugs and investigational agents in selected tumor cell lines The current study was undertaken to assess response to LSD1 inhibitors in combination with standard-of-care drugs and investigational agents in solid tumor complex spheroid models as well as in the K-562 leukemia. […] Compounds. […] If the clinical Cmax for an agent had not been determined, the highest concentration tested was 10 microM. […]

O=C(c1cc(Cc2n[nH]c(=O)c3ccccc23)ccc1F)N1CCN(C(=O)C2CC2)CC1 + NC1CCC(NC2CC2c2ccccc2)CC1 = 99%
CC1COCCN1c1cc(-c2ccnn2C)c2ccnc(-c3ccn[nH]3)c2n1 (centres undefined) + NC1CCC(NC2CC2c2ccccc2)CC1 = 29.1%
CC1COCCN1c1cc(C2(S(C)(=N)=O)CC2)nc(-c2ccnc3[nH]ccc23)n1 (centres undefined) + NC1CCC(NC2CC2c2ccccc2)CC1 = 64.4%

Turning now to a further compound:
stdin: Item CC1COCCN1c1cc(-c2ccnn2C)c2ccnc(-c3ccn[nH]3)c2n1 (centres undefined) + NC1CC1c1ccc(-c2cccc(O)c2)cc1 has what recorded viability, T/C?
stdout: 22.4%

###

Test system: 521955-158-R2-J5-PDC complex spheroid viability
experiment-summary: Anticancer human tumor 521955-158-R2-J5-PDC cell line growth inhibition; active means viability on the fitted dose curve at most 10% of control; inactive means the rest
test-context: second compound 0.1 µM; first compound 0.001 µM
From the text: Multicellular complex tumor spheroid response to LSD1 Inhibitor Iadademstat in combination with a variety of drugs and investigational agents in selected tumor cell lines The current study was undertaken to assess response to LSD1 inhibitors in combination with standard-of-care drugs and investigational agents in solid tumor complex spheroid models as well as in the K-562 leukemia. […] Compounds. […] If the clinical Cmax for an agent had not been determined, the highest concentration tested was 10 microM. […]
Form entry, call: pick from t = active, f = inactive

Some entries whose results are on file:
Cn1ncnc1C1c2n[nH]c(=O)c3cc(F)cc(c23)NC1c1ccc(F)cc1 (centres undefined) + NC1CCC(NC2CC2c2ccccc2)CC1 = f
CC(C)CC(NC(=O)C(Cc1ccccc1)NC(=O)c1cnccn1)B(O)O (centres undefined) + NC1CCC(NC2CC2c2ccccc2)CC1 = t
CC(C)CC(NC(=O)CNC(=O)c1cc(Cl)ccc1Cl)B1OC(=O)CC(CC(=O)O)(C(=O)O)O1 (centres undefined) + NC1CC1c1ccc(-c2cccc(O)c2)cc1 = f

Alright, here's another compound for you.
stdin: What did the test return for Cn1ncnc1C1c2n[nH]c(=O)c3cc(F)cc(c23)NC1c1ccc(F)cc1 (centres undefined) + NC1CC1c1ccc(-c2cccc(O)c2)cc1 ?
stdout: f

###

System: 521955-158-R2-J5-PDC complex spheroid viability
experiment-summary: Anticancer human tumor 521955-158-R2-J5-PDC cell line growth inhibition;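 note: spheroids exposed to agents for seven days; percent of DMSO vehicle control luminescence viability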
test-context: second compound 3.16 µM; first compound 0.316 µM; active compounds read low
Simple rule here: viability, T/C less than 70% is Satisfied, otherwise Not satisfied.

COc1cc(Nc2ncc3c(n2)-c2ccc(Cl)cc2C(c2c(F)cccc2OC)=NC3)ccc1C(=O)O + NC1CC1c1ccc(-c2cccc(O)c2)cc1 = Not satisfied
COc1ccc([C@@H](O)c2cc(-c3ncnc4cc(N5CCOCC5)ccc34)c(F)cc2Cl)nn1 + NC1CCC(NC2CC2c2ccccc2)CC1 = Satisfied
O=C(C=Cn1cnc(-c2cc(C(F)(F)F)cc(C(F)(F)F)c2)n1)NNc1cnccn1 + NC1CC1c1ccc(-c2cccc(O)c2)cc1 = Satisfied

stdin: hey, is viability, T/C for O=C(c1cc(Cc2n[nH]c(=O)c3ccccc23)ccc1F)N1CCN(C(=O)C2CC2)CC1 + NC1CCC(NC2CC2c2ccccc2)CC1 lower than 70% or not?
stdout: Not satisfied

stdin: Next record, please: O=C(C=Cn1cnc(-c2cc(C(F)(F)F)cc(C(F)(F)F)c2)n1)NNc1cnccn1 + NC1CCC(NC2CC2c2ccccc2)CC1
stdout: Satisfied

stdin: Next record, please: CC1COCCN1c1cc(C2(S(C)(=N)=O)CC2)nc(-c2ccnc3[nH]ccc23)n1 (configuration not stated) + NC1CC1c1ccc(-c2cccc(O)c2)cc1
stdout: Not satisfied

###

System: 521955-158-R2-J5-PDC complex spheroid viability
experiment-summary: Anticancer human tumor 521955-158-R2-J5-PDC cell line growth inhibition;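 note: spheroids exposed to agents for seven days; percent of DMSO vehicle control luminescence viability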
test-context: second compound 0.316 µM; first compound 0.001 µM; active compounds read low
measured-endpoint: viability, T/C (%)
Write the value in % as a bare number.

Below, each entry is followed by its recorded viability, T/C result.
CC(C)CC(NC(=O)C(Cc1ccccc1)NC(=O)c1cnccn1)B(O)O (stereo not drawn) + NC1CCC(NC2CC2c2ccccc2)CC1 = 0.23
CC(C)CC(NC(=O)CNC(=O)c1cc(Cl)ccc1Cl)B1OC(=O)CC(CC(=O)O)(C(=O)O)O1 (stereo not drawn) + NC1CCC(NC2CC2c2ccccc2)CC1 = 106
CC[C@@]1(O)C(=O)OCc2c1cc1n(c2=O)Cc2cc3c(CN(C)C)c(O)ccc3nc2-1 + NC1CC1c1ccc(-c2cccc(O)c2)cc1 = 94.9
CC[C@@]1(O)C(=O)OCc2c1cc1n(c2=O)Cc2cc3c(CN(C)C)c(O)ccc3nc2-1 + NC1CCC(NC2CC2c2ccccc2)CC1 = 97.2
CC(C)CC(NC(=O)C(Cc1ccccc1)NC(=O)c1cnccn1)B(O)O (stereo not drawn) + NC1CC1c1ccc(-c2cccc(O)c2)cc1 = 0.44

stdin: 521955-158-R2-J5-PDC complex spheroid viability / viability, T/C / Cn1ncnc1C1c2n[nH]c(=O)c3cc(F)cc(c23)NC1c1ccc(F)cc1 (stereo not drawn) + NC1CC1c1ccc(-c2cccc(O)c2)cc1 : value?
stdout: 100

stdin: Next record, please: CC(C)CC(NC(=O)CNC(=O)c1cc(Cl)ccc1Cl)B1OC(=O)CC(CC(=O)O)(C(=O)O)O1 (stereo not drawn) + NC1CC1c1ccc(-c2cccc(O)c2)cc1
stdout: 90.5

stdin: Next record, please: Cn1ncnc1C1c2n[nH]c(=O)c3cc(F)cc(c23)NC1c1ccc(F)cc1 (stereo not drawn) + NC1CCC(NC2CC2c2ccccc2)CC1
stdout: 92.4

###

Tested on: 521955-158-R2-J5-PDC complex spheroid viability
experiment-summary: Anticancer human tumor 521955-158-R2-J5-PDC cell line growth inhibition; active means viability on the fitted dose curve at most 10% of control; inactive means the rest;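 note: spheroids exposed to agents for seven days; percent of DMSO vehicle control luminescence viability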
test-context: second compound 1 µM; first compound 0.3 µM
Form entry, call: pick from active, inactive

Some entries whose results are on file:
Nc1ncn(C2CC(O)C(CO)S2)c(=O)n1 (configuration not stated) + NC1CCC(NC2CC2c2ccccc2)CC1 = inactive
NS(=O)(=O)OCC1CC(n2ccc3c(NC4CCc5ccccc54)ncnc32)CC1O (configuration not stated) + NC1CCC(NC2CC2c2ccccc2)CC1 = inactive

stdin: What did the test return for Nc1ccn(C2OC(CO)C(O)C2(F)F)c(=O)n1 (configuration not stated) + NC1CCC(NC2CC2c2ccccc2)CC1 ?
stdout: inactive

stdin: Next record, please: CCc1c2c(nc3ccc(O)cc13)-c1cc3c(c(=O)n1C2)COC(=O)[C@]3(O)CC + NC1CC1c1ccc(-c2cccc(O)c2)cc1
stdout: active

stdin: Next record, please: CCN(c1cc(-c2ccc(CN3CCOCC3)cc2)cc(C(=O)NCc2c(C)cc(C)[nH]c2=O)c1C)C1CCOCC1 + NC1CC1c1ccc(-c2cccc(O)c2)cc1
stdout: inactive

stdin: Next record, please: Nc1ccn(C2OC(CO)C(O)C2(F)F)c(=O)n1 (configuration not stated) + NC1CC1c1ccc(-c2cccc(O)c2)cc1
stdout: inactive

stdin: Next record, please: CCc1c2c(nc3ccc(O)cc13)-c1cc3c(c(=O)n1C2)COC(=O)[C@]3(O)CC + NC1CCC(NC2CC2c2ccccc2)CC1
stdout: active

###

Reported viability, T/C by item:
System: 521955-158-R2-J5-PDC complex spheroid viability
experiment-summary: Anticancer human tumor 521955-158-R2-J5-PDC cell line growth inhibition;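 note: spheroids exposed to agents for seven days; percent of DMSO vehicle control luminescence viability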
test-context: second compound 3.16 µM; first compound 0.3 µM; active compounds read low

CCN(c1cc(-c2ccc(CN3CCOCC3)cc2)cc(C(=O)NCc2c(C)cc(C)[nH]c2=O)c1C)C1CCOCC1 + NC1CC1c1ccc(-c2cccc(O)c2)cc1 = 83.9%
CCc1c2c(nc3ccc(O)cc13)-c1cc3c(c(=O)n1C2)COC(=O)[C@]3(O)CC + NC1CC1c1ccc(-c2cccc(O)c2)cc1 = 2.14%
COc1cc(C2c3cc4c(cc3C(OC3OC5COC(C)OC5C(O)C3O)C3COC(=O)C23)OCO4)cc(OC)c1O (centres undefined) + NC1CC1c1ccc(-c2cccc(O)c2)cc1 = 44.4%

Turning now to a further compound:
stdin: Item CCN(c1cc(-c2ccc(CN3CCOCC3)cc2)cc(C(=O)NCc2c(C)cc(C)[nH]c2=O)c1C)C1CCOCC1 + NC1CCC(NC2CC2c2ccccc2)CC1 has what recorded viability, T/C?
stdout: 82.8%
